Reported pKi is given for each of the following compounds.
# ASSAY TARGET: UniProt:P16257
# Sequence (P16257 whole entry, looked up): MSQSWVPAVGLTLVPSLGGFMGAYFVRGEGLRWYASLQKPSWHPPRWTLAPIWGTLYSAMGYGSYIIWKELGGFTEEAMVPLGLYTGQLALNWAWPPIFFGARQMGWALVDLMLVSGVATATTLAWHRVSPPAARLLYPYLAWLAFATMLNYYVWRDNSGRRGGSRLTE
pKi: −log10 of the molar value.
MEASURE: pKi

* COc1ccc(OC)c(CN(C(C)=O)c2cc(F)ccc2Oc2ccccc2)c1 | 9.37
* O=C(CF)N(Cc1cccc2c1OCCO2)c1ccccc1Oc1ccccc1 | 8.94
* COc1ccccc1CN(C(=O)CF)c1cnccc1Oc1ccccc1 | 8.66
* COc1ccc(OC)c(CN(C(=O)CF)c2ccccc2Sc2ccccc2)c1 | 8.35
* COc1ccc(OCCF)c(CN(C(C)=O)c2cccnc2Oc2ccccc2)c1 | 8.14
* COc1ccc(OC)c(CN(C(=O)CF)c2ccccc2OC2CCCC2)c1 | 9.34

* * *

Reported Ratio is given for each of the following molecules.
# System: Striatum
# PROCEDURE SUMMARY: Ratio of biodistribution in olfactory bulbs to striatum of in naive Wistar rat at 1 to 3 MBq, iv using [18F] labeled compound measured 30 mins post dose
# Format: ADME, organism-based
# PROTOCOL CONDITIONS: in vivo, 0.5 h
MEASURE: Ratio

- O=C(CF)N(Cc1cccc2c1OCC2)c1ccccc1Oc1ccccc1: 2.52
- COc1ccc(OC)c(CN(C(=O)CF)c2ccccc2Sc2ccccc2)c1: 1.88
- COc1ccccc1CN(C(=O)CF)c1ccccc1OC1CCCC1: 3.23

* * *

Reported logD is given for each of the following compounds.
# PROCEDURE SUMMARY: Lipophilicity, log D of the compound at pH 7.4
# Format: physicochemical
# PROTOCOL CONDITIONS: buffer, read-out: logD
MEASURE: logD

- COc1ncccc1CN(C(=O)CF)c1cc(F)ccc1Oc1ccccc1: 2.3
- CC(=O)N(Cc1cccnc1OCCF)c1ccccc1Oc1ccccc1: 2.6
- CC(=O)N(Cc1cccn(CCF)c1=O)c1ccccc1Oc1ccccc1: 2.2
- CC1(C)Cc2cccc(CN(C(=O)CF)c3ccccc3Oc3ccccc3)c2O1: 2.6
- Cc1ccc(CN(C(=O)CF)c2ccccc2Oc2ccccc2)o1: 2.19
- COc1ccc(OC)c(CN(C(=O)CF)c2ccccc2OC2CCCC2)c1: 3.8
- COc1ccccc1CN(C(=O)CF)c1ccccc1OC1CCCC1: 2.35
- O=C(CF)N(Cc1cccc2c1OCC2)c1ccccc1Oc1ccccc1: 2.68
- COc1ccc(OC)c(CN(C(=O)CF)c2ccccc2OC(C)C)c1: 2.62
- COc1ncccc1CN(C(=O)CF)c1ccccc1Oc1ccccc1: 2.38
- CC(=O)N(Cc1ccccc1OCCF)c1cccnc1Oc1ccccc1: 1.69

* * *

# Test system: Rattus norvegicus
# PROCEDURE SUMMARY: Biodistribution in naive Wistar rat olfactory bulbs at 1 to 3 MBq, iv using [18F] labeled compound measured 30 mins post dose
# Type: ADME, organism-based, Olfactory bulb
# PROTOCOL CONDITIONS: in vivo, 0.5 h
Reported Drug uptake is given for each of the following molecules.
MEASURE: Drug uptake

- COc1ncccc1CN(C(=O)CF)c1cc(F)ccc1Oc1ccccc1: 0.5 % ID/g
- COc1ccc(OCCF)c(CN(C(C)=O)c2cccnc2Oc2ccccc2)c1: 0.26 % ID/g
- COc1ccccc1CN(C(=O)CF)c1cccnc1Oc1ccccc1: 0.15 % ID/g
- CC1(C)Cc2cccc(CN(C(=O)CF)c3ccccc3Oc3ccccc3)c2O1: 0.23 % ID/g
- O=C(CF)N(Cc1cccc2c1OCC2)c1ccccc1Oc1ccccc1: 0.68 % ID/g
- COc1ccc(OC)c(CN(C(=O)CF)c2cc(F)ccc2Oc2ccccc2)c1: 0.7 % ID/g
- COc1ccccc1CN(C(=O)CF)c1ccccc1OC1CCCC1: 0.42 % ID/g
- COc1ccc(OC)c(CN(C(=O)CF)c2ccccc2Sc2ccccc2)c1: 0.17 % ID/g
- COc1ccc(OC)c(CN(C(=O)CF)c2ccccc2OC2CCCC2)c1: 0.23 % ID/g
- CC(=O)N(Cc1ccccc1OCCF)c1cccnc1Oc1ccccc1: 0.4 % ID/g
- COc1ncccc1CN(C(=O)CF)c1ccccc1Oc1ccccc1: 0.33 % ID/g

* * *

# Tested on: Striatum
# PROCEDURE SUMMARY: Ratio of biodistribution in olfactory bulbs to striatum of in naive Wistar rat at 1 to 3 MBq, iv using [18F] labeled compound measured 30 mins post dose
# Assay type: ADME, organism-based
# PROTOCOL CONDITIONS: in vivo, 0.5 h
MEASURE: Ratio

- COc1ccc(OC)c(CN(C(=O)CF)c2ccccc2OC2CCCC2)c1: 2.56
- CC(=O)N(Cc1ccccc1OCCF)c1cccnc1Oc1ccccc1: 3.08
- CC1(C)Cc2cccc(CN(C(=O)CF)c3ccccc3Oc3ccccc3)c2O1: 1.53
- COc1ccc(OCCF)c(CN(C(C)=O)c2cccnc2Oc2ccccc2)c1: 5.2
- O=C(CF)N(Cc1cccc2c1OCCO2)c1ccccc1Oc1ccccc1: 2.5
- COc1ccc(OC)c(CN(C(=O)CF)c2cc(F)ccc2Oc2ccccc2)c1: 2.06
- COc1ncccc1CN(C(=O)CF)c1cc(F)ccc1Oc1ccccc1: 2.78
- COc1ccc(OC)c(CN(C(=O)CF)c2cccc3cc(C)oc23)c1: 3.5
- COc1ncccc1CN(C(=O)CF)c1ccccc1Oc1ccccc1: 2.54
- COc1ccccc1CN(C(=O)CF)c1cccnc1Oc1ccccc1: 1.36
- O=C(CF)N(Cc1cccc2c1OCO2)c1ccccc1Oc1ccccc1: 2.85

The reported numbers originate from ChEMBL document CHEMBL2069301.
